// provenance: patent US10246418B2

- PROTOCOL_TEXT: Solubility comparison: saturated solutions in SGF, FaSSIF, FeSSIF and high purity water, concentration by HPLC
- CONDITION_PARAMETERS: high purity water, water, thermodynamic from solid

{"MOLECULE": "COc1cc2nccc(Oc3ccc(NC(=O)NC4CC4)c(Cl)c3)c2cc1C(N)=O [Form M]", "UNIT_NAME": "µg/mL", "solubility at 24 h": 1600}
